# tested_on: human nAChRα6-α3 chimera, in addition to β2 and β3^V273S subunits (Homo sapiens, UniProt P32297+Q15825)
# Construct: expressed in transfected cells
# Sequence (Q05901 25-458 V273S): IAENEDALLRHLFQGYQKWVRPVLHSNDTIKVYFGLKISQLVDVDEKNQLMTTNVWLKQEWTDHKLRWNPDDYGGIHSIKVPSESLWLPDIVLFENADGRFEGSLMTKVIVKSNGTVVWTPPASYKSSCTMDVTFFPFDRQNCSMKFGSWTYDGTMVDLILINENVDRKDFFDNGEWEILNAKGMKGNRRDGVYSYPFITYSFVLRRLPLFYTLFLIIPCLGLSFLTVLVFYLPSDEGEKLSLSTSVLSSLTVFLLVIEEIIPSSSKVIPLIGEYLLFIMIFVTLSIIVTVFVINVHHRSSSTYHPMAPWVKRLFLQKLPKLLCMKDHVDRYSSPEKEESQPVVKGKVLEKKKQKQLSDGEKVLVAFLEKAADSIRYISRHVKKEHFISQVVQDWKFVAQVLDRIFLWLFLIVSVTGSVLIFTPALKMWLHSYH
# Sequence (P17787 26-502, stated change not applied, further chain): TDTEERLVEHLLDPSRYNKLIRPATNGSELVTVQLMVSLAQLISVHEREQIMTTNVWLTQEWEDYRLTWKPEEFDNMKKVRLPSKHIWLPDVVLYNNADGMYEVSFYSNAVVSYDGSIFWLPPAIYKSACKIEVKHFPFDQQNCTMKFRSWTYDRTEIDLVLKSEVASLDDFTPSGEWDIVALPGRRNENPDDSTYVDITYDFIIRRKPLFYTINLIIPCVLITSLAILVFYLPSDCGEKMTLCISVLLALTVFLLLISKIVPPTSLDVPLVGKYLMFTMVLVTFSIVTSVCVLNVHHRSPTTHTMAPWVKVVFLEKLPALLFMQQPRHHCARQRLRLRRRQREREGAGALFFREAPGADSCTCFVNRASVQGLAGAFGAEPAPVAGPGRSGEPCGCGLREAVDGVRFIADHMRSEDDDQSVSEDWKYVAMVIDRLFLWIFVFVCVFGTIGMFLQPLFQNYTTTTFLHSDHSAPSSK
# Sequence (Q15825+P32297 fused with the stated changes): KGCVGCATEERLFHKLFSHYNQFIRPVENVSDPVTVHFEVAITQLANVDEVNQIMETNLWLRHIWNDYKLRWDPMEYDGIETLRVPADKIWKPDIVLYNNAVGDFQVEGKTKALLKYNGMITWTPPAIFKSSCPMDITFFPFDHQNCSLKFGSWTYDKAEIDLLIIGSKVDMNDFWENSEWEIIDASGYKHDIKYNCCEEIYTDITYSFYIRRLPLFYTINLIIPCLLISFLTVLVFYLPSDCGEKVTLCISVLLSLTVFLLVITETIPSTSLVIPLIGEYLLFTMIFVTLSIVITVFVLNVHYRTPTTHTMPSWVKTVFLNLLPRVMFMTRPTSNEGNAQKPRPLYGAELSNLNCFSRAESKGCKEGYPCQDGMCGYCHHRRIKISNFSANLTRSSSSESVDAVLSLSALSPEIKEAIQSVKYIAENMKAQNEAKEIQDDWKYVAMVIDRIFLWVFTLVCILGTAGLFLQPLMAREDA
# experiment_summary: fluorescence-based calcium assay: inhibition of nicotine stimulated nAChRα6 activity (FLIPR)
# assay_conditions: HEK cell line stably expressing the receptor; 10 min pre-incubation, nicotine EC80; 10-point curve, duplicate wells; read-out: IC50
observed_property: IC50 (nM)
API: value field is a number in nM; no unit string.

Looking up Cc1nc(NC(C)[C@@H]2CCCN2C)ncc1-c1ccc(C(F)(F)F)cc1F (single isomer, unassigned) [Example 132b] , I found its IC50 recorded as 97

Query COc1ccc(-c2cnc(NCCC3CCCN3C)nc2C)c(F)c1 (stereo not shown) [Example 16] yields IC50 of 75

// field: IC50; key: COc1ccc(-c2nnc(NCC3CCCN3C)nc2C)c(F)c1 (single isomer, unassigned) [Example 18b] ; value = 442

Recorded result, Cc1nc(NC(C)[C@H]2CCCN2)ncc1-c1ccc(C(F)(F)F)cc1F (single isomer, unassigned) [Example 129b] , IC50: 105

Recorded IC50 (compound CN1CCCC1CNc1ncc(-c2ccc(F)cc2F)c(C#N)n1 (stereo not shown) [Example 19] ): 216

Measured IC50, Cc1nc(N[C@H]2CN3CCC2CC3)ncc1-c1ccc(C(F)(F)F)cc1F [Example 119] : 155

IC50 for COc1ccc(-c2nnc(NCC3CCCN3C)nc2C)c(F)c1 (single isomer, unassigned) [Example 18a] is 331

IC50 reported for this compound Cc1nc(NCC2COCCN2C)ncc1-c1ccc(F)cc1F (single isomer, unassigned) [Example 79b] : 296

Looking up COc1ccc(-c2c(C)nc(NCC3CCCN3C)nc2OC)c(F)c1 (stereo not shown) [Example 75] , I found its IC50 recorded as 94

The reported IC50 of the compound O=C(O)/C=C/C(=O)O.[2H]C([2H])([2H])N1CCC[C@H]1CNc1ncc(-c2ccc(C(F)(F)F)cc2F)c(C)n1 [Example 118] was 75

Consider Cc1nc(NCc2cccnc2)ncc1-c1ccc(F)cc1F [Example 42] . Its measured IC50 is 1200

Query Cc1nc(N[C@H]2C[C@H]3CC[C@@H](C2)N3)ncc1-c1ccc(C(F)(F)F)cc1F [Example 121] yields IC50 of 191

Lab note: measured IC50 of COc1ccc(-c2cnc(NC3CCC(N(C)C)C3)nc2C)c(F)c1 (single isomer, unassigned) [Example 44b] was 88

Lab book: IC50 of CN(C)C1CCCC(Nc2ncc(-c3ccc(F)cc3)cn2)C1 (stereo not shown) [Example 7] noted as 590

// sample Cc1nc(N[C@H]2CC[C@H](N)C2)ncc1-c1ccc(C(F)(F)F)cc1F [Example 111] , its IC50 was 90

Short answer for CCN1CCCC1CNc1ncc(-c2ccc(F)cc2F)c(C)n1 (stereo not shown) [Example 85] : IC50 was 51

Notebook: COc1ccc(-c2cnc(NC3CCCC(OC)C3)nc2C)c(F)c1 (single isomer, unassigned) [Example 53b] , IC50 read as 734

Entry under test: COc1ccc(-c2cnc(NC3CCCN(C(C)C)C3)nc2C)c(F)c1 (stereo not shown) [Example 48] . Its IC50 was 83

GET /value?item= Cc1nc(NC[C@H]2CC(F)(F)CN2C)ncc1-c1ccc(F)cc1F [Example 80] &field=IC50 returns 1470

Reported IC50 ( Cc1nc(NCC2CCN(C)C2)ncc1-c1ccc(C(F)(F)F)cc1F (stereo not shown) [Example 99] ) = 83

Short answer for CN1CCCC(Nc2ncc(-c3ccc(F)cc3)cn2)C1 (stereo not shown) [Example 5] : IC50 was 635

Notebook: COc1ccc(-c2nnc(NCC3CCCCN3C)nc2C)c(F)c1 (single isomer, unassigned) [Example 57b] , IC50 read as 144

get_value(item= COc1ccc(F)c(-c2cnc(NCC3COCCN3C)nc2C)c1 (stereo not shown) [Example 61] , readout=IC50) returns 533

For this compound ( Cc1nc(NCCC2CCCN2C)nnc1-c1ccc(F)cc1F (stereo not shown) [Example 21] ), measured IC50 is 599

Please fill in: IC50 reported for Cc1nc(NC2CCCN(C(C)C)C2)ncc1-c1ccc(F)cc1F (stereo not shown) [Example 72] = 52

Item: COc1ccc(F)c(-c2cnc(NCC3CCCCN3C)nc2C)c1 (stereo not shown) [Example 33] | IC50: 45

The reported IC50 of the compound CC(C)N1CCC(Nc2ncc(-c3ccc(F)cc3F)c(C#N)n2)CC1 [Example 65] was 84

In plain terms, COc1ccc(-c2cnc(NC3CCC(N(C)C)C3)nc2C(F)(F)F)c(F)c1 (stereo not shown) [Example 43] has a documented IC50 of 178

Kindly note the recorded IC50 for COc1ccc(-c2nnc(NCC3CCCCN3C)nc2C)c(F)c1 (stereo not shown) [Example 26] , which is 156

IC50 measured on COc1ccc(-c2cnc(NCC3COCCN3C)nc2C)c(F)c1 (stereo not shown) [Example 32] = 99

The compound listed as COc1ccc(-c2nnc(NC3CCCN(C(C)C)C3)nc2C)c(F)c1 (single isomer, unassigned) [Example 76b] has a reported IC50 of 107

# IC50 of Cc1nc(NC2CCN(C)CC2)ncc1-c1ccc(OC(F)(F)F)cc1F [Example 89] = 180

IC50 in this record for [2H]C([2H])([2H])N1CCC[C@@H]1CNc1ncc(-c2ccc(F)cc2F)c(C)n1 [Example 90b] : 186

# compound Cc1nc(NCC2C(F)CCN2C)ncc1-c1ccc(F)cc1F (single isomer, unassigned) [Example 96b] ; its IC50 = 99

Ref: patent US20240059677A1
